Taken from patent US20260078119A1.

targetEntity: FAK (Homo sapiens, UniProt Q05397)
Construct: homozygous knock-in of a HiBiT tag (Promega Corporation, Madison, WI) to the C-terminus of the FAK gene in its natural genomic locus; endogenous in cells; host or cells: JHH-4-FAK-HiBiT clone d01 (CRISPR-Cas9 knock-in at the endogenous locus)
Sequence (Q05397 whole entry): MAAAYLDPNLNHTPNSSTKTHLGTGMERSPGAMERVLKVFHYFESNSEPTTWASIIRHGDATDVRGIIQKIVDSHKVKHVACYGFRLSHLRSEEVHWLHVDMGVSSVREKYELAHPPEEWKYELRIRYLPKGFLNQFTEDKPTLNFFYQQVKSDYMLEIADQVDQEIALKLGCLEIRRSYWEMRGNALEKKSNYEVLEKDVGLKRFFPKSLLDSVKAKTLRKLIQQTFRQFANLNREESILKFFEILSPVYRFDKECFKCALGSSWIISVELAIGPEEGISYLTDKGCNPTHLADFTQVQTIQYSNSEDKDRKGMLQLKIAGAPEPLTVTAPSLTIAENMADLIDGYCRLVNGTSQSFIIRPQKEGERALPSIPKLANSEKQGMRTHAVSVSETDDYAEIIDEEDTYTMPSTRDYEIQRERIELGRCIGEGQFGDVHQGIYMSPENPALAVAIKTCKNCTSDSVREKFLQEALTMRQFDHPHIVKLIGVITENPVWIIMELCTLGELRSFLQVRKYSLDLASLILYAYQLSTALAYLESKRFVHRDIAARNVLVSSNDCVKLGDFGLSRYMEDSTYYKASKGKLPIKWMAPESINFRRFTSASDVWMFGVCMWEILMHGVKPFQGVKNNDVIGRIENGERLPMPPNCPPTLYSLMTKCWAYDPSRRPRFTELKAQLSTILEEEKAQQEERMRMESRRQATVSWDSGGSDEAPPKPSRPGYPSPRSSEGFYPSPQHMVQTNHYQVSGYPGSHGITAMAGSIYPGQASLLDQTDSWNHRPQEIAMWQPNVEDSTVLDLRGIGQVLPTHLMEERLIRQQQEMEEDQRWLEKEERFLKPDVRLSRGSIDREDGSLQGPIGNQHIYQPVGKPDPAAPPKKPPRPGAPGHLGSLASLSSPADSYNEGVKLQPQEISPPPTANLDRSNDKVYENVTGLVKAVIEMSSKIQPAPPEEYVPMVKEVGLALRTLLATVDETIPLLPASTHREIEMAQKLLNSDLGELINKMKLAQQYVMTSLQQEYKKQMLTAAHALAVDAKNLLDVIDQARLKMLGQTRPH
assayDetails: FAK-HiBiT Degradation Assay
Assay type: cell-based
conditionLabel: lower limit of the four parameter fit (value A); Ymax derived using DMSO control; JHH-4-FAK-HiBiT cells, two hours
Text: To generate JHH-4-FAK-HiBiT cells for the FAK degradation assay, JHH-4 cells (Japanese Collection of Research Biosources Cell Bank, Japan) were transfected with ribonucleoprotein reagents to introduce, by CRISPR-Cas9 editing, the homozygous knock-in of a HiBiT tag (Promega Corporation, Madison, WI) to the C-terminus of the FAK gene in its natural genomic locus. […]
Could you label it condition met if measured FAK HiBiT Ymin is 10 or higher, and condition not met otherwise?

[in] State whether the measured FAK HiBiT Ymin reaches 10, counting equality as reaching it, for O=C1CC[C@@H](N2Cc3cc(Cn4ncc5c(-c6ncc(C(F)(F)F)cc6Cl)c(F)c(N6CC(F)C6)nc54)ccc3C2=O)C(=O)N1 (single isomer, unassigned) [Example 78]
[out] condition not met

[in] Has O=C1CCC(N2Cc3cc(Cn4ncc5c(-c6ncc(C(F)(F)F)cc6Cl)cc(N[C@H]6CCOC6)nc54)ccc3C2=O)C(=O)N1 (stereo partly drawn) [Example 132] a recorded FAK HiBiT Ymin greater than or equal to 10?
[out] condition met

[in] FAK HiBiT Ymin >= 10 for N#Cc1ccc(-c2cc(N3CCC3)nc3c2cnn3Cc2ccc3c(n2)CN(C2CCC(=O)NC2=O)C3=O)c(Cl)c1 (stereo not drawn) [Example 101] ?
[out] condition met

[in] # check: FAK HiBiT Ymin of CN(c1cc(-c2ncc(C(F)(F)F)cc2Cl)c2cnn(Cc3ccc4c(c3)CN(C3CCC(=O)NC3=O)C4=O)c2n1)C1CCOCC1 (stereo not drawn) [Example 94] is greater than or equal to 10
[out] condition met

[in] Check the entry CCOc1cnc(-c2cc(N3CC(F)C3)nc3c2cnn3Cc2ccc3c(c2)CN(C2CCC(=O)NC2=O)C3=O)c(Cl)c1 (stereo not drawn) [Example 44] : does FAK HiBiT Ymin equal or exceed 10?
[out] condition met

[in] Does FAK HiBiT Ymin meet or surpass 10 for CN(c1cc(-c2ncc(C(F)(F)F)cc2Cl)c2cnn(Cc3ccc4c(c3)CN([C@H]3CCC(=O)NC3=O)C4=O)c2n1)[C@H]1C[C@](C)(O)C1 [Example 107] ?
[out] condition met
